System: M14
test method notes: NCI tumour cell line growth inhibition, 48 h
Activity calls are given as the source filed them. Rule as the data show it: active = GI50 up to about 1.1 µM and inactive = higher.
Item-by-item account of GI50

compound	GI50
CN(C)CCCNc1ccc2ncn3c4ccc(O)cc4c(=O)c1c23	1.65 µM (inactive)
COc1cc([C@@H]2c3cc4c(cc3[C@@H](c3c(O)cc(O)c5c3O[C@H](c3ccc(O)c(O)c3)[C@H](OC(=O)c3cc(O)c(O)c(O)c3)C5)[C@H]3COC(=O)[C@H]23)OCO4)cc(OC)c1OC	9.93 µM (inactive)
N=C(CC/C(N)=N/O)NO	38.7 µM (inactive)
N#CC(/N=N/c1ccccc1)c1nc2ccccc2o1 (stereo unspecified)	44.8 µM (inactive)
CC1=CC(=O)c2c(O)cccc2C1=O	1.86 µM (inactive)
C=C1C(=O)OC2/C=C(\C)C(O)CC(O)C(C)(O)CC(OC(=O)/C(C)=C/C)C12 (stereo unspecified)	60.1 µM (inactive)

====

System: CCRF-CEM
test method notes: NCI tumour cell line growth inhibition, 48 h
Active and inactive are the calls of the source. Rule as the data show it: active = GI50 up to about 1.1 µM and inactive = higher.
Classes used: true for active, false for inactive

chemical string	label
O=c1c2cc(Cl)cc(Cl)c2oc2nc3n(c(=O)c12)CCCS3	false
COc1cc([C@@H]2c3cc4c(cc3[C@@H](/N=C/c3ccc(C(=O)O[C@@H](C(=O)O[C@H]5C[C@@]6(O)[C@@H](OC(=O)c7ccccc7)[C@@H]7[C@]8(OC(C)=O)CO[C@@H]8C[C@H](O)[C@@]7(C)C(=O)[C@H](OC(C)=O)C(=C5C)C6(C)C)[C@@H](NC(=O)c5ccccc5)c5ccccc5)cc3)[C@H]3COC(=O)[C@H]23)OCO4)cc(OC)c1O	true

====

System: MCF7
test method notes: NCI tumour cell line growth inhibition, 48 h
Activity calls are given as the source filed them. No stated cut-off is given here; in the data, active = GI50 up to about 1.1 µM and inactive = higher.
Outcomes: Y (active), N (inactive)

compound	tgt	label
Cc1cc2c(cc1Cl)SC(c1ccccc1)C(=O)NS2(=O)=O (stereo unspecified)	MCF7	N
CCOC(=O)NC	MCF7	N
c1cc(CSP234N5CCN2CCN3CCN4CC5)ccc1CSP123N4CCN1CCN2CCN3CC4	MCF7	N
COc1cc([C@@H]2c3cc4c(cc3[C@@H](/N=C/c3ccc(C(=O)O[C@@H](C(=O)O[C@H]5C[C@@]6(O)[C@@H](OC(=O)c7ccccc7)[C@@H]7[C@]8(OC(C)=O)CO[C@@H]8C[C@H](O)[C@@]7(C)C(=O)[C@H](OC(C)=O)C(=C5C)C6(C)C)[C@@H](NC(=O)c5ccccc5)c5ccccc5)cc3)[C@H]3COC(=O)[C@H]23)OCO4)cc(OC)c1O	MCF7	Y
Cc1ccc(S(=O)(=O)NC(=O)NCc2ccc(S(N)(=O)=O)cc2)cc1	MCF7	N
CSc1nc(C)c2c(n1)SCC2	MCF7	N
COc1ccc2c(c1)CC[C@@H]1[C@@H]2CC[C@]2(C)C(=O)/C(=C/c3cc(OC)c(OC)c(OC)c3)C[C@@H]12	MCF7	N
N=C(N)NCCN1CCCCCc2ccccc21	MCF7	N
C/C(=C\CO)CC[C@@H]1[C@@]2(C)CCCC(C)(C)[C@@H]2CC[C@@]1(C)O	MCF7	N
CN(C)CCNc1ccc(NCCN(C)C)c2c1C(=O)c1ncsc1C2=O	MCF7	N
C(/C=N/c1ccccc1)=C(/Nc1ccccc1)c1ccc2ccccc2c1	MCF7	N
O=C(CSc1ncnc2[nH]cnc12)c1ccccc1	MCF7	N
CC1(C)C=C(/C=C2/N(S(=O)(=O)C(F)(F)F)C(/C=C3/N(S(=O)(=O)C(F)(F)F)C(C)(C#N)CC3(C)C)=CC2(C)C)N=C1/C=C1/CC(C)(C)C(=O)N1 (stereo unspecified)	MCF7	N
COC1/C=C/C(C)C(OC)CC(O)/C=C/C(C)C(C(C)C(OC)C(C)CCC(=O)C(C)C(C/C=C/N(C)C=O)OC)OC(=O)/C=C/C=C(\C)CC(OC)C(OC)C2=CC(=O)O[C@@H](C(C)C(OC)C1)[C@H]2O (stereo partly specified)	MCF7	Y
CCCNC1=C(C)C(=O)C2=C(C1=O)[C@H](COC(N)=O)[C@]1(OC)[C@@H]3N[C@@H]3CN21	MCF7	Y
C[C@H]1C[C@H](C)c2ccccc2N(C)/C1=N\c1ccccc1	MCF7	N

====

Tested on: SK-MEL-5
test method notes: NCI tumour cell line growth inhibition, 48 h
The source made the active and inactive calls. Rule as the data show it: active = GI50 up to about 1.1 µM and inactive = higher.
Recorded GI50 values for a group of compounds are listed next.
measurement kind: GI50

In [3]: df
Out[3]:
                                    compound  measurement_kind             observed
 0       Nc1ccc2c(c1)C(=O)N1CCC[C@H]1C(=O)N2              GI50  > 100 µM (inactive)
 1  COC(=O)c1csc(-c2csc(CCNC(=O)OC(C)(C)C)n2)n1              GI50   90.6 µM (inactive)
 2                        CSc1[nH]cnc1C(N)=S              GI50  > 100 µM (inactive)
 3  O=C(OCc1c(-c2ccccc2)nn(-c2ccccc2)c1COC(=O)Oc1ccccc1)Oc1ccccc1              GI50   31.8 µM (inactive)
 4      CN(CCC#N)c1ccc(/C=C2\SC(=S)NC2=O)cc1              GI50     52 µM (inactive)
 5  CC1(c2nc3ccccc3[nH]2)CCC(C(=O)O)C(C)(C)O1 (configuration not stated)              GI50  > 100 µM (inactive)
 6                 CNC1(c2cc3ccccc3s2)CCCCC1              GI50   16.3 µM (inactive)
 7  N#Cc1c(-c2ccc(Cl)cc2)c2c([nH]c1=O)-c1ccccc1SC2              GI50  > 100 µM (inactive)
 8  CSCCC(NC(=O)C(Cc1ccccc1)NC(=O)CNC(=O)CNC(=O)C(N)Cc1ccc(O)cc1)C(=O)O (configuration not stated)              GI50  > 100 µM (inactive)
 9  CCCC(O)C(NC(=O)CCl)C(=O)O (configuration not stated)              GI50  > 100 µM (inactive)
10  CC1(C)C[C@H]2C3=CC[C@@H]4[C@@]5(C)CC[C@H](O)C(C)(C)[C@@H]5CC[C@@]4(C)[C@]3(C)C[C@@H](O)[C@@]23C[C@@H]1OC3=O              GI50   55.2 µM (inactive)
11  C[C@@H](N[C@H]1CCC[C@@H]1O)c1ccccc1.C[C@@H](N[C@H]1CCC[C@H]1O)c1ccccc1              GI50   57.7 µM (inactive)
12               CN(C)c1nc2nonc2nc1Nc1ccccc1              GI50  > 100 µM (inactive)
13  CC1(C)[N+]([O-])=[N+]([O-])C1(C)Br (configuration not stated)              GI50  > 100 µM (inactive)
14  Cc1cccc(=O)c([O-])c1.Cc1cccc(=O)c([O-])c1.[Bi+3].[Cl-]              GI50   11.3 µM (inactive)
15  COc1cc2cc3c4c(cc(OC)c(OC)c4c2cc1OC)CCN3C              GI50   6.03 µM (inactive)
16  Cc1c(C(=O)C/C(=N/NC(=O)CC#N)C(N)=O)[n+]([O-])c2ccccc2[n+]1[O-]              GI50   40.6 µM (inactive)
17  CN1CCN(CN2C(=O)C3C4C=CC(C3C2=O)C2C3C(=O)N(CN5CCN(C)CC5)C(=O)C3C42)CC1 (configuration not stated)              GI50   30.4 µM (inactive)
18  N#Cc1c(Nc2ccccc2)[n+]([O-])c2ccc(Cl)cc2[n+]1[O-]              GI50   2.09 µM (inactive)
19                 O=c1c2c(nc3[nH]ccn13)CCC2              GI50   > 10 µM (inactive)
20  Cc1[nH]c2ccccc2c1-c1cc(-c2cc(-c3c(C)[nH]c4ccccc34)on2)no1              GI50   38.5 µM (inactive)
21  CN1C(=O)c2ccccc2OC12C=Cc1c(ccc3ccccc13)O2 (configuration not stated)              GI50   6.05 µM (inactive)

====

System: RXF 631
test method notes: NCI tumour cell line growth inhibition, 48 h
Calls of active or inactive are those of the source. Cut-off read from the data, not from the text of the source: active = GI50 up to about 1.1 µM and inactive = higher.
Quick reference: GI50 of the listed items.
measurement kind: GI50

In [3]: df
Out[3]:
                                   compound  measurement_kind             observed
0     COc1ccc(C(=O)NCCN(C)C)c2nc3ccccc3nc12              GI50   9.12 µM (inactive)
1  Cc1c(C(=O)C/C(=N/NC(=O)CC#N)C(N)=O)[n+]([O-])c2ccccc2[n+]1[O-]              GI50   87.3 µM (inactive)
2      CC(=O)N(C)C=C1C(=O)N(C)C(=O)N(C)C1=O              GI50  > 100 µM (inactive)
3  COc1ccc(C(=O)C(C(=O)C(=O)Nc2nc3ccc(OC)cc3s2)c2ccc(OC)cc2)cc1 (configuration not stated)              GI50  > 100 µM (inactive)
4  Cc1ccc(S(=O)(=O)N/N=C2\C(=O)C3CC2C(Cl)C3Cl)cc1 (configuration not stated)              GI50  > 100 µM (inactive)
5  CC(=O)OCC1=C(C(=O)O)C(c2ccc3c(c2)OCO3)c2cc3c(cc2O1)OCO3 (configuration not stated)              GI50  > 100 µM (inactive)
6  O=C(NCCc1ccccc1)C1C(=O)C(=O)N(CCc2ccccc2)C1=O (configuration not stated)              GI50  > 100 µM (inactive)
